Item-by-item account of pIC50
target: T1, TBD-22 (HC D109A); test: competition ELISA, Fab on captured TROP2
T1 construct: anti-TROP2 Fab, CDR3 HC alanine mutant
T1 sequence (VH, as listed by the source, chain 1 of 2): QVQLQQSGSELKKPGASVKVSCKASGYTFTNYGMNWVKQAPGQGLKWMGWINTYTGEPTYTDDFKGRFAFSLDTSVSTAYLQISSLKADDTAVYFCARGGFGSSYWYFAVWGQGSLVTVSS
T1 sequence (VL, as listed by the source, chain 2 of 2): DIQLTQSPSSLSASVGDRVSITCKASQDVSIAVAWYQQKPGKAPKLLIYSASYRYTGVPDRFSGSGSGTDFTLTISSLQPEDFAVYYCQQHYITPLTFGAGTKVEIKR
# reply with the number alone; pIC50 is -log10 of concentration in mol/L

Example results:
- BINDER: "VDFCGLYHWPICYQV (mask peptide for the TROP2 Fab) [Peptide-51]"
  OBSERVED MEASUREMENT: 8.00
- BINDER: "VDFCAIYSWPICKI (mask peptide for the TROP2 Fab) [Peptide-50]"
  OBSERVED MEASUREMENT: 7.70
- BINDER: "VDFCYQYAWPVCSTGD (mask peptide for the TROP2 Fab) [Peptide-52]"
  OBSERVED MEASUREMENT: 6.05
- BINDER: "VDFCYQYGWPICSRVD (mask peptide for the TROP2 Fab) [Peptide-45]"
  OBSERVED MEASUREMENT: 5.60
- BINDER: "VDFCYMYKWPVCYP (mask peptide for the TROP2 Fab) [Peptide-48]"
  OBSERVED MEASUREMENT: 6.51

-- ask Form field: reported pIC50 of VDFCYRYSWPVCWA (mask peptide for the TROP2 Fab) [Peptide-54]
-- reply 5.44

-- ask Which pIC50 is reported for this binder? VDFCGLYHWPICYQ (mask peptide for the TROP2 Fab) [Peptide-8]
-- reply 7.00

Reference source: patent US20230357429A1
